# MEASURED_ON: Sth1(301-1097) (budding yeast, UniProt P32597 301-1097)
# Sequence (P32597 301-1097): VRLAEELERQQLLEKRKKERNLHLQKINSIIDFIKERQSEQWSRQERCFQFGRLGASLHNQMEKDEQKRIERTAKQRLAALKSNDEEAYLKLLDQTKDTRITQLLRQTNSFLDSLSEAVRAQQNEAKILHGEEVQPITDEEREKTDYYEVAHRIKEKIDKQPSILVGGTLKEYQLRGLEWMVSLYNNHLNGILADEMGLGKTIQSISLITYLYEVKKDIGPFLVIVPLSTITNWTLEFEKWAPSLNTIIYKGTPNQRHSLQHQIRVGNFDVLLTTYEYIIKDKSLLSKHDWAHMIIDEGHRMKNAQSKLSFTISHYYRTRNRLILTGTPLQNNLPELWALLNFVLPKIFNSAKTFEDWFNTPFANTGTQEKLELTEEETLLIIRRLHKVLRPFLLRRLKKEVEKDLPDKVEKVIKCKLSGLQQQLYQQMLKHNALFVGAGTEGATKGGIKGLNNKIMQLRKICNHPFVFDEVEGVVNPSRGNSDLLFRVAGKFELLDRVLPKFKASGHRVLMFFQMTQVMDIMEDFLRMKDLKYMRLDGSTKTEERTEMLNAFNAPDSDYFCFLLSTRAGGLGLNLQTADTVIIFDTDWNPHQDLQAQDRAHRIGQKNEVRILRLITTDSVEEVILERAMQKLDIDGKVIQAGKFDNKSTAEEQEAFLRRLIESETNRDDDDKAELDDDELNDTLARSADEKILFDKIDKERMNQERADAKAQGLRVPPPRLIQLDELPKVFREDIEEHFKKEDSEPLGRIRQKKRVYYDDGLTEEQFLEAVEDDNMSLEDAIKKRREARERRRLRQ
# ASSAY_COMMENT: fluorescence anisotropy; 1 mM AMPPNP; Anisotropy: 20 mM HEPES pH 7.5, 50 mM NaCl, 2.5 mM MgCl2, 5% glycerol, 1 mM DTT, 0.1 mg/mL BSA, 1 mM AMPPNP or ADP, 50 nM DNA, 20 C; EMSA: 20 mM HEPES pH 7.5, 50 mM NaCl, 1 mM MgCl2, 5% glycerol, 1 mM DTT, 0.1 mg/mL BSA, 1 mM ADP or AMPPNP, room temperature
# TEST_CONTEXT: protein: recombinant; label: 5'-fluorescein; strands 21 and 22 nt: 21 bp with 1 nt 5' overhang (T) on strand 2
TEST_READOUT: Kd
Please report the result as a number followed by the unit.

Entry under review: fluorescein DNA duplex (dsDNA) DNA 1: TCCATGTCCATGGATACGTGG DNA 2: TCCACGTATCCATGGACATGGA . Reported Kd?
0.28 µM
